biological target: integrin α4β7 (Homo sapiens, UniProt P13612+P26010); construct: lymphoma cell strain RPMI-8866 of human B cells, known to express integrin α4β7; endogenous in cells; host or cells: RPMI-8866; test: VCAM antagonistic activity (VCAM-1/α4β7 binding assay), RPMI-8866 cells binding to VCAM-1; assay type: cell-based; conditions: RPMI-8866 human B lymphoma cells binding to recombinant human VCAM-1; binding buffer with 4 mM MnCl2
Sequence (P13612 34-1032): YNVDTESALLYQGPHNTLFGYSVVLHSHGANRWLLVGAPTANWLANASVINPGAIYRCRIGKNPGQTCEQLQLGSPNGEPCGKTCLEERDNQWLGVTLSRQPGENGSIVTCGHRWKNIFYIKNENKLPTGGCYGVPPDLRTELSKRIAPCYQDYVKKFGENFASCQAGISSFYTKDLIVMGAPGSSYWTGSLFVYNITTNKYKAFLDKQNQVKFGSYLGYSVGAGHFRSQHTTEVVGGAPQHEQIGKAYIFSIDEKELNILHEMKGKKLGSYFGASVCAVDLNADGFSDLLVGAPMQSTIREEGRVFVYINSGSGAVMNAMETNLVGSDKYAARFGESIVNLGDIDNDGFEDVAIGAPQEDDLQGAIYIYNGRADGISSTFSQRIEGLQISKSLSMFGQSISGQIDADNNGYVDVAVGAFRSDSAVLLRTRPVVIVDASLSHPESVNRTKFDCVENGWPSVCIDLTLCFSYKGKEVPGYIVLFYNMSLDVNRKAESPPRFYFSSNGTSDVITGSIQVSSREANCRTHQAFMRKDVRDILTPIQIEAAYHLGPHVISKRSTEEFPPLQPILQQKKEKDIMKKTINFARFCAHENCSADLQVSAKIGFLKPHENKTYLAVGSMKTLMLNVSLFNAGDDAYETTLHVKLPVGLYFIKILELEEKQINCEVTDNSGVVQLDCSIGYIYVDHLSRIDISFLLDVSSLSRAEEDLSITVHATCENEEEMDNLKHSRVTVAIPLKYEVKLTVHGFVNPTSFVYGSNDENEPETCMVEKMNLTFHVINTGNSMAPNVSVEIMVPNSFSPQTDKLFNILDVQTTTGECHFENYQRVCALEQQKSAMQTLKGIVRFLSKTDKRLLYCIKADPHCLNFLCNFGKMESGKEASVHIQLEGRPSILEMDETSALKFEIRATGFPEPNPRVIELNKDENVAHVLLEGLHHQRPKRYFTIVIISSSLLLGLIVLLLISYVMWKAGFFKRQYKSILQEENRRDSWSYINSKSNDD
Sequence (P26010 20-798): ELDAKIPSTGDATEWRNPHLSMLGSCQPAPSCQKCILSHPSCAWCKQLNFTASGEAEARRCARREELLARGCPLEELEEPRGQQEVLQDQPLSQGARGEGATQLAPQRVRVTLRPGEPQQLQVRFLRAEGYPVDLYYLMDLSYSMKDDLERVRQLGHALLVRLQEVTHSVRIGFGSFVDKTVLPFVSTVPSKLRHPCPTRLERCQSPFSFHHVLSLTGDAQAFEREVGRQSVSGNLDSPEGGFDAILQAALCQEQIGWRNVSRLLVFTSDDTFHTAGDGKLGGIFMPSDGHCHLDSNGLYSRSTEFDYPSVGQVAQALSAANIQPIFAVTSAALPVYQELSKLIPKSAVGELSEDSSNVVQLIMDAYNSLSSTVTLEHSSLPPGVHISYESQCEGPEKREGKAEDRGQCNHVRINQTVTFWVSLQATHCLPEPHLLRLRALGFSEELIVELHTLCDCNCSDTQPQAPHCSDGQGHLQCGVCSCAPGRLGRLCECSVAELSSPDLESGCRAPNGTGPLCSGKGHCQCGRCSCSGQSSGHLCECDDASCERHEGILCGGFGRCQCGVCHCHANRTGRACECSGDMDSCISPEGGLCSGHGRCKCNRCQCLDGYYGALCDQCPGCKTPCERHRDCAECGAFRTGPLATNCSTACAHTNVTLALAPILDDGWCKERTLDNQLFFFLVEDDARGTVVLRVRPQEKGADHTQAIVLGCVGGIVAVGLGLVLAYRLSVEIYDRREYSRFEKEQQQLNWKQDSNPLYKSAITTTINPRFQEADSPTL
hey, just use 1 (yes) if measured IC50 is less than 5 nM, otherwise 0 (no)

Q) Is 5 nM strictly greater than the compound's reported IC50? compound: Cc1cccc(C)c1C(=O)N[C@@H](Cc1ccc(-n2c(CCl)nc3ccccc3c2=O)cc1)C(=O)O [Example 44]
A) 0 (no)

Q) Is 5 nM strictly greater than the compound's reported IC50? compound: COc1cccc2c(=O)n(-c3ccc(C[C@H](NC(=O)c4c(Cl)cccc4Cl)C(=O)O)cc3)c(=O)n(C)c12 [Example 180]
A) 0 (no)

Q) Is 5 nM strictly greater than the compound's reported IC50? compound: Cn1c(=O)n(-c2ccc(C[C@H](NC(=O)c3c(Cl)cccc3Cl)C(=O)O)cc2)c(=O)c2cccc(Cl)c21 [Example 182]
A) 0 (no)

Q) Is 5 nM strictly greater than the compound's reported IC50? compound: CCOc1nc2ccc(Cl)cc2c(=O)n1-c1ccc(C[C@H](NC(=O)c2c(Cl)cccc2Cl)C(=O)O)cc1 [Example 93]
A) 1 (yes)

Q) Is 5 nM strictly greater than the compound's reported IC50? compound: Cc1cccc2c1c(=O)n(-c1ccc(C[C@H](NC(=O)c3c(Cl)cccc3Cl)C(=O)O)cc1)c(=O)n2C [Example 181]
A) 1 (yes)

Q) Is 5 nM strictly greater than the compound's reported IC50? compound: Cn1c(=O)n(-c2ccc(C[C@H](NC(=O)C3CCCCC3)C(=O)O)cc2)c(=O)c2ccccc21 [Example 12]
A) 0 (no)

Q) Is 5 nM strictly greater than the compound's reported IC50? compound: COc1cc2c(=O)n(-c3ccc(C[C@H](NC(=O)c4c(Cl)cccc4Cl)C(=O)O)cc3)c(=O)n(C)c2cc1OC [Example 188]
A) 1 (yes)

Q) Is 5 nM strictly greater than the compound's reported IC50? compound: O=C(N[C@@H](Cc1ccc(-n2c(=O)oc3ccccc3c2=O)cc1)C(=O)O)c1c(Cl)cccc1Cl [Example 136]
A) 1 (yes)

Hey, just so you know, these numbers are from patent US8426588B2.
